- Target system: epidermal growth factor receptor variant III (EGFRvIII) (human) (UniProt P00533)
- Measurement protocol: flow cytometry on U87MG-EGFRvIII cells, apparent KD (KD-app), mean of several experiments
Overview of reported Kd across a group of binders:

# Binder, Kd
data = [
    ("humanized 4E11 antibody hH1-hL1 (antibody, human IgG4 S228P, kappa, V domains shown) VH: QVQLQESGPGLVKPSQTLSLTCTVSGYSITSDYAWNWIRQPPGKGLEWIGYIGYNGRTSYNPSLKSRVTISVDTSKNQFSLKLSSVTAADTAVYYCARLGRGFAYWGQGTLVTVSS VL: DIQMTQSPSSLSASVGDRVTITCHASQGINSNIGWYQQKPGKAPKLLIYHGTNLEDGVPSRFSGSGSGTDYTLTISSLQPEDFATYYCVQYAQFPYTFGQGTKLEIKR", "9.7 nM"),
    ("humanized 4E11 antibody hH1-hL2 (antibody, human IgG4 S228P, kappa, V domains shown) VH: QVQLQESGPGLVKPSQTLSLTCTVSGYSITSDYAWNWIRQPPGKGLEWIGYIGYNGRTSYNPSLKSRVTISVDTSKNQFSLKLSSVTAADTAVYYCARLGRGFAYWGQGTLVTVSS VL: DIQMTQSPSSLSASVGDRVTITCHASQGINSNIGWLQQKPGKAPKGLIYHGTNLEDGVPSRFSGSGSGTDYTLTISSLQPEDFATYYCVQYAQFPYTFGQGTKLEIKR", "23 nM"),
    ("humanized 4E11 antibody hH1-hL3 (antibody, human IgG4 S228P, kappa, V domains shown) VH: QVQLQESGPGLVKPSQTLSLTCTVSGYSITSDYAWNWIRQPPGKGLEWIGYIGYNGRTSYNPSLKSRVTISVDTSKNQFSLKLSSVTAADTAVYYCARLGRGFAYWGQGTLVTVSS VL: DIQMTQSPSSLSASVGDRVTITCHASQGINSNIGWLQQKPGKAFKGLIYHGTNLEDGVPSRFSGSGSGTDYTLTISSLQPEDFATYYCVQYAQFPYTFGQGTKLEIKR", "15.7 nM"),
    ("humanized 4E11 antibody hH2-hL3 (antibody, human IgG4 S228P, kappa, V domains shown, Human IgG4(S228P), C-terminal Lys deleted, human kappa; made in CHO cells; 17) for this name; 18) VH: QVQLQESGPGLVKPSQTLSLTCTVSGYSITSDYAWNWIRQPPGKGLEWIGYIGYNGRTSYNPSLKSRVTISRDTSKNQFSLKLSSVTAADTAVYYCARLGRGFAYWGQGTLVTVSS VL: DIQMTQSPSSLSASVGDRVTITCHASQGINSNIGWLQQKPGKAFKGLIYHGTNLEDGVPSRFSGSGSGTDYTLTISSLQPEDFATYYCVQYAQFPYTFGQGTKLEIKR", "7.2 nM"),
    ("humanized 4E11 antibody hH3-hL1 (antibody, human IgG4 S228P, kappa, V domains shown, Human IgG4(S228P), C-terminal Lys deleted, human kappa; made in CHO cells; 18) for this name; 16) VH: QVQLQESGPGLVKPSQTLSLTCTVSGYSITSDYAWNWIRQPPGKGLEWMGYIGYNGRTSYNPSLKSRITISRDTSKNQFSLKLSSVTAADTAVYYCARLGRGFAYWGQGTLVTVSS VL: DIQMTQSPSSLSASVGDRVTITCHASQGINSNIGWYQQKPGKAPKLLIYHGTNLEDGVPSRFSGSGSGTDYTLTISSLQPEDFATYYCVQYAQFPYTFGQGTKLEIKR", "4.9 nM"),
]
